The origin of these recorded values is patent US11453697B1.

Listed molecules paired with reported EC50
molecular target: full-length HAQ STING (Homo sapiens (Human), UniProt Q86WV6, G230A/H232R/R293Q/R71H); assay: 3H-cGAMP filtration binding assay (HAQ STING); conditions: competition with tritiated cGAMP, HAQ STING membrane; read-out: EC50 (nM), 3H-cGAMP filtration binding assay for HAQ STING
Sequence (Q86WV6 other isoform, or with tags, fused parts or gaps, stated change not applied): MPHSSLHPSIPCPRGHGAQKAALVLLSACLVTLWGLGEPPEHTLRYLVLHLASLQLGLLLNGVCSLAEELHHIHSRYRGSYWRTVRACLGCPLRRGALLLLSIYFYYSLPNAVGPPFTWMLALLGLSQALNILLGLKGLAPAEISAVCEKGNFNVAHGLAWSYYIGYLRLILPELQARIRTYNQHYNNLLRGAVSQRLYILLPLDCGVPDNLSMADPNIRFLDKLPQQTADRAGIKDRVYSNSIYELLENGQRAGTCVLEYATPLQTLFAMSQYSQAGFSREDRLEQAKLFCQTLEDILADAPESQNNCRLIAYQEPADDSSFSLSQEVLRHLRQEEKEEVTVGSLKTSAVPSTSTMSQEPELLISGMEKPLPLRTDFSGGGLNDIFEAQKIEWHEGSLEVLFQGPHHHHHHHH
Please respond with the number in nM and leave the unit unwritten.

Nc1nc2c(ncn2[C@@H]2O[C@@H]3COP(=O)(O)O[C@H]4[C@H](F)[C@H](n5cnc6c(=O)[nH]cnc65)O[C@@H]4COP(=O)(O)O[C@@H]2[C@@H]3O)c(=O)[nH]1: 29.6
C[C@@H]1OP(=O)(O)O[C@@H]2C[C@@H](COP(=O)(O)O[C@H]3[C@@H](O)[C@H](n4cnc5c(N)ncnc54)O[C@H]31)O[C@H]2n1cnc2c(=O)[nH]c(N)nc21: 53.9
Nc1nc2c(ncn2[C@@H]2O[C@@H]3COP(=O)(S)O[C@H]4[C@H](F)[C@H](n5nnc6c(N)ncnc65)O[C@@H]4COP(=O)(S)O[C@@H]2C3)c(=O)[nH]1 (stereo partly shown): 739
Nc1nc2c(ncn2[C@@H]2O[C@@]34CO[C@H]3[C@H]2OP(=O)(O)OC[C@H]2O[C@@H](n3cnc5c(=O)[nH]cnc53)[C@H](O)[C@@H]2OP(=O)(O)OC4)c(=O)[nH]1: 2320
Nc1nc2c(ncn2[C@@H]2O[C@@H]3COP(=O)(O)O[C@H]4[C@@H](F)[C@H](n5cnc6c(=O)[nH]cnc65)O[C@@H]4COP(=O)(O)O[C@@H]2[C@@H]3O)c(=O)[nH]1: 1.9

We next turn to a different molecule, shown below.
May I ask what EC50 has been recorded for `Nc1nc2c(ncn2[C@@H]2O[C@@H]3COP(=O)(O)O[C@H]4[C@@H](F)[C@H](n5cnc6c(=O)[nH]cnc65)O[C@@H]4COP(=O)(O)O[C@@H]2C3)c(=O)[nH]1` ?
6.6

====

Listed compounds paired with reported EC50
biological target: full-length HAQ STING (Homo sapiens (Human), UniProt Q86WV6, G230A/H232R/R293Q/R71H); assay: 3H-cGAMP filtration binding assay (HAQ STING); conditions: competition with tritiated cGAMP, HAQ STING membrane; read-out: EC50 (nM), 3H-cGAMP filtration binding assay for HAQ STING
Please respond with the number in nM and leave the unit unwritten.

GET /values?readout=EC50&system=full-length HAQ STING (Homo sapiens (Human), UniProt Q86WV6, G230A/H232R/R293Q/R71H)&item= `Nc1nc2c(ncn2[C@@H]2O[C@@H]3COP(=O)(O)O[C@H]4[C@@H](O)[C@H](c5n[nH]c6c(N)ncnc56)O[C@@H]4COP(=O)(O)O[C@@H]2[C@@H]3O)c(=O)[nH]1`
30

Field entry: `Nc1ncnc2c1ncn2[C@@H]1O[C@@H]2COP(=O)(O)O[C@@H]3[C@H](O)[C@@H](COP(=O)(O)O[C@H]2[C@H]1O)O[C@H]3n1cnc2c(=O)[nH]ccc21`
3.1

====

Target: full-length HAQ STING (Homo sapiens (Human), UniProt Q86WV6, G230A/H232R/R293Q/R71H)
Assay: 3H-cGAMP filtration binding assay (HAQ STING)
Details: competition with tritiated cGAMP, HAQ STING membrane; read-out: EC50 (nM), 3H-cGAMP filtration binding assay for HAQ STING
Text: The ability of compounds to bind STING is quantified by the ability to compete with tritiated cGAMP ligand for human STING receptor membrane using a radioactive filter-binding assay. […] The ability of compounds to bind STING is quantified by their ability to compete with tritiated cGAMP ligand for human STING receptor membrane using a radioactive filter-binding assay. […]
Listed compounds paired with reported log10 of EC50
Each number you see is log10 of EC50, and the unit inside the log is nM.

May I ask what log10 of EC50 has been recorded for `COCCc1ncnc2c1ncn2[C@@H]1O[C@@H]2COP(=O)(O)O[C@@H]3[C@H](O)[C@@H](COP(=O)(O)O[C@H]2[C@H]1O)O[C@H]3n1cnc2c(=O)[nH]c(N)nc21` ?
2.64

Field entry: `NC(=O)c1ncnc2c1ncn2[C@@H]1O[C@@H]2COP(=O)(O)O[C@@H]3[C@H](O)[C@@H](COP(=O)(O)O[C@H]2[C@H]1O)O[C@H]3n1cnc2c(=O)[nH]c(N)nc21`
1.88

Field entry: `Nc1nc2c(ncn2[C@@H]2O[C@@H]3CO[P@@](=O)(S)O[C@H]4[C@@H](O)[C@H](n5cnc6c(=O)[nH]cnc65)O[C@@H]4CO[P@@](=O)(S)O[C@@H]2C3)c(=O)[nH]1`
0.40

Field entry: `Nc1ncnc2c1ncn2[C@@H]1O[C@@H]2COP(=O)(O)O[C@@H]3[C@H](O)[C@@H](COP(=O)(O)O[C@H]2[C@H]1O)O[C@H]3c1n[nH]c2c(=O)[nH]cnc12`
0.76

Field entry: `Nc1nc2c(ncn2[C@@H]2O[C@@H]3COP(=O)(O)O[C@H]4[C@@H](O)[C@H](n5nnc6c(N)nccc65)O[C@@H]4COP(=O)(O)O[C@@H]2[C@@H]3O)c(=O)[nH]1`
2.92
